Attribute: Kd
Molecular target: T1, AgeI D177A (UniProt Q9KHV6 1-278, D177A)
T1 sequence: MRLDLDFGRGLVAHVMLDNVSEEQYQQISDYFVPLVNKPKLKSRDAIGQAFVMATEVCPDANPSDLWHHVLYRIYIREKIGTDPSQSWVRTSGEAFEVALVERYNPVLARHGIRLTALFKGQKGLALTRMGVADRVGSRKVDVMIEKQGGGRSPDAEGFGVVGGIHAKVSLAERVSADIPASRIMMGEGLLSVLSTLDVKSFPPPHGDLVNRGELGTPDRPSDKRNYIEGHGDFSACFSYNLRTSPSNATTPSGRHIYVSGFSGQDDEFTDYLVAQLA
Assay: EMSA
Respond numerically; units are nM and should not be typed.

binder: SP (specific) (dsDNA) DNA 1: AGACCCACGCTCACCGGTTCCAGATTTATC DNA 2: GATAAATCTGGAACCGGTGAGCGTGGGTCT
Kd, nM: 19.5

Now consider a different binder.
I am curious: what Kd value has been reported for NC (non-canonical) (dsDNA) DNA 1: AGACCCACGCTCACCGGATCCAGATTTATC DNA 2: GATAAATCTGGATCCGGTGAGCGTGGGTCT ?
14.7

Values compiled from paper PMC5389614.
